assay.summary: photoluminescence quantum yield (fraction); solvent given as SMILES
particulars: in CO
measure.name: photoluminescence quantum yield
Respond using a number only.

Reference set, count: 5
Ask: Report photoluminescence quantum yield for CC(=O)c1ccc(-c2nc3ccc(N(C)C)cc3s2)cc1
Reply: 0.041

Ask: Report photoluminescence quantum yield for COCCOCCOCCOc1ccc(OCCOCCOCCOC)c(C=O)c1
Reply: 0.25

Ask: Report photoluminescence quantum yield for COc1cccc(-c2[nH]c(=O)n3c2-c2ccccc2C3=O)c1O
Reply: 0.02

Ask: Report photoluminescence quantum yield for N#Cc1ccc(/C=C/C=C/C2=NC3C(=O)NC(N)=NC3N2[C@H]2C[C@H](O)[C@@H](CO)O2)cc1 (some centres undefined)
Reply: 0.32

Ask: Report photoluminescence quantum yield for CC1(C)C(/C=C/C=C/C=C/C=C2/N(S(=O)(=O)[O-])c3ccc(S(=O)(=O)[O-])cc3C2(C)C)=[N+](S(=O)(=O)[O-])c2ccc(S(=O)(=O)[O-])cc21
Reply: 0.55

Continuing:
Ask: Report photoluminescence quantum yield for CC(=O)OCCOCCN1C(=O)c2cc(NCCOCCO)c3c4c(cc(NCCOCCO)c(c24)C1=O)C(=O)N(CCOCCOC(C)=O)C3=O
Reply: 0.37

====

Below, each entry is listed with its recorded photoluminescence quantum yield.
assay.summary: photoluminescence quantum yield (fraction); solvent given as SMILES
particulars: in ClCCl
Respond using a number only.

Ask: Report photoluminescence quantum yield for Cc1cccc(-c2[nH]c(=O)n3c2-c2ccccc2C3=O)c1O
Reply: 0.6

Ask: Report photoluminescence quantum yield for c1ccc(N(c2ccccc2)c2ccc3c(ccc4nc5ccc6cc(N(c7ccccc7)c7ccccc7)ccc6c5nc43)c2)cc1
Reply: 0.64

Ask: Report photoluminescence quantum yield for CC(C)(C)NC(=O)c1ccc(-c2ccc(N3c4ccccc4Oc4ccccc43)cc2)c2ccc3c4ccc(F)cc4c4cc(F)ccc4c3c12
Reply: 0.03

Ask: Report photoluminescence quantum yield for C(S/C=C/c1ccc(-c2ccc(/C=C/SC=C3CCCCCC3)cc2)cc1)=C1CCCCCC1
Reply: 0.176

Ask: Report photoluminescence quantum yield for O=S(=O)(c1ccc(-c2ccc(-c3nc4c5ccccc5c5ccccc5c4n3-c3ccccc3)cc2)cc1)c1ccc(-c2ccc(-c3nc4c5ccccc5c5ccccc5c4n3-c3ccccc3)cc2)cc1
Reply: 0.824

Continuing:
Ask: Report photoluminescence quantum yield for CC(=O)c1nc(-c2ccc(N(C)C)cc2)oc1C
Reply: 0.044

Ask: Report photoluminescence quantum yield for N#Cc1ccc(-n2c(-c3ccc(-c4ccc(-c5nc6c7ccccc7c7ccccc7c6n5-c5ccc(C#N)c6ccccc56)cc4)cc3)nc3c4ccccc4c4ccccc4c32)c2ccccc12
Reply: 0.85

====

assay.summary: photoluminescence quantum yield (fraction); solvent given as SMILES
particulars: in c1ccncc1
Below, each entry is listed with its recorded photoluminescence quantum yield.
Respond using a number only.

Reference set, count: 3
Ask: Report photoluminescence quantum yield for [C-]#[N+]c1ccc(-c2ccc(N(C)C)cc2)cc1
Reply: 0.63

Ask: Report photoluminescence quantum yield for NNC(=O)NNN1C(=O)c2cc(S(=O)(=O)[O-])cc3c(N)c(S(=O)(=O)[O-])cc(c23)C1=O
Reply: 0.26

Ask: Report photoluminescence quantum yield for CCCCCCCC(=O)Oc1ccc2c3cccc4c(OC(=O)CCCCCCC)ccc(c5cccc1c52)c43
Reply: 0.93

Let's switch to this compound now.
Ask: Report photoluminescence quantum yield for [C-]#[N+]c1ccc(-c2ccc(NC)cc2)cc1
Reply: 0.03
